# Target desc: cPLA2 (Homo sapiens)
Experimental readout: IC50 (nM)

Field: example entries. Status: answers known.
O=C1NC(=O)C(=C/C=C/c2ccc(C(=O)NC[C@@H]3C[C@@H](OCc4ccccc4-c4ccccc4)CN3C(=O)c3ccccc3C(=O)c3ccc(F)cc3)cc2)S1 [Compound A-49]; 49
O=C1NC(=O)/C(=C/c2ccc(CC[C@@H]3C[C@@H](OCc4ccccc4-c4ccccc4)CN3C(=O)c3ccccc3C(=O)c3ccc(F)cc3)cc2)S1 [Compound E-2]; 280
O=C1NC(=O)/C(=C/c2ccc(C(=O)NC[C@@H]3C[C@@H](SCc4ccccc4-c4ccccc4)CN3C(=O)c3ccccc3C(=O)c3ccc(F)cc3)cc2)S1 [Compound I-5]; 34
O=C1NC(=S)S/C1=C\C1CCN(C(=O)[C@@H]2C[C@@H](SCc3ccccc3-c3ccccc3)CN2C(=O)c2ccccc2C(=O)c2ccc(F)cc2)CC1 [Compound J-6]; 13000
O=C1NC(=O)/C(=C/c2ccc(C(=O)NC[C@@H]3C[C@@H](OCc4ccccc4-c4ccccc4)CN3C(=O)c3ccccc3C(=O)c3ccc(F)cc3)cc2)O1 [Compound A-54]; 140
O=C1NC(=O)/C(=C/c2ccc(C(=O)NC[C@@H]3C[C@@H](OCc4ccccc4-c4ccccc4)CN3C(=O)c3ccccc3C(=O)C3CCCCC3)cc2)S1 [Compound A-14]; 370
CCN(Cc1ccccc1-c1ccccc1)[C@@H]1C[C@@H](CNC(=O)c2ccc(/C=C3\SC(=O)NC3=O)cc2)N(C(=O)c2ccccc2C(=O)c2ccc(F)cc2)C1 [Compound M-8]; 60
O=C1NC(=O)/C(=C/c2ccc(C(=O)NC[C@@H]3C[C@@H](OCc4ccccc4Oc4ccccc4)CN3C(=O)c3ccccc3C(=O)c3ccc(F)cc3)cc2)S1 [Compound A-48]; 90

[1] O=C1NC(=O)/C(=C/c2ccc(C(=O)NC[C@@H]3C[C@@H](OCc4ccccc4-c4ccc(F)cc4)CN3C(=O)c3ccccc3C(=O)c3ccc(F)cc3)cc2)S1 [Compound A-30]
[2] O=C1NC(=S)S/C1=C\c1ccc(NC(=O)[C@@H]2C[C@@H](SCc3ccccc3-c3ccccc3)CN2C(=O)c2ccccc2C(=O)c2ccc(F)cc2)c(O)c1 [Compound J-7]
Input: Lowest IC50? choose 1 or 2 # reply format: chosen label
Output: 1
(1: 98 nM, 2: 500 nM)

---

Quick reference for IC50 among some molecules
# System: production of prostaglandin E2 by human fibroblasts
# Protocol text: Inhibition of Production of Prostaglandin E2 in Human Fibroblasts (IL-1 stimulation)
# Type: cell-based
# Condition set: Fibroblast; human fibroblasts under stimulation with IL-1
Numbers only; they are read as nM.

CN(Cc1ccccc1)c1ccccc1CO[C@@H]1C[C@@H](CNC(=O)c2ccc(/C=C3\SC(=O)NC3=O)cc2)N(C(=O)c2ccccc2C(=O)c2ccc(F)cc2)C1 [Compound A-43]; 560
Nc1ccccc1C(=O)c1ccccc1C(=O)N1C[C@H](OCc2ccccc2-c2ccccc2)C[C@H]1CNC(=O)c1ccc(/C=C2\SC(=O)NC2=O)cc1 [Compound A-23]; 1200

In the following, a different molecule is considered.
Input: Endpoint output: IC50 of O=C1NC(=S)S/C1=C\c1ccc(/C=C\[C@@H]2C[C@@H](OCc3ccccc3-c3ccccc3)CN2C(=O)c2ccccc2C(=O)c2ccc(F)cc2)s1 [Compound E-5] . Value?
Output: 3500

---

# Tested on: production of prostaglandin E2 by human fibroblasts
# Protocol text: Inhibition of Production of Prostaglandin E2 in Human Fibroblasts (IL-1 stimulation)
# Format: cell-based
# Condition set: Fibroblast; human fibroblasts under stimulation with IL-1
Experimental readout: IC50 (nM)
Numbers only; they are read as nM.

Input: # query: IC50 | item O=C1NC(=O)/C(=C/c2ccc(C(=O)NC[C@@H]3C[C@@H](OCc4ccc5ccccc5c4-c4ccccc4)CN3C(=O)c3ccccc3C(=O)c3ccc(F)cc3)cc2)S1 | system: production of prostaglandin E2 by human fibroblasts
Output: 330

---

Quick reference for pIC50 among some compounds
# Test system: production of prostaglandin E2 by human fibroblasts
# Protocol text: Inhibition of Production of Prostaglandin E2 in Human Fibroblasts (IL-1 stimulation)
# Format: cell-based
# Condition set: Fibroblast; human fibroblasts under stimulation with IL-1
Answer as the number alone; pIC50 is minus log10 of concentration in mol/L.

Field: example entries. Status: answers known.
O=C1NC(=O)/C(=C/c2ccc(/C=C\C[C@@H]3C[C@@H](OCc4ccccc4-c4ccccc4)CN3C(=O)c3ccccc3C(=O)c3ccc(F)cc3)cc2)S1 [Compound E-12]; 5.24
O=C1NC(=O)/C(=C/c2ccc(C(=O)NC[C@@H]3C[C@@H](OCc4ccccc4Oc4ccccc4)CN3C(=O)c3ccccc3C(=O)c3ccc(F)cc3)cc2)S1 [Compound A-48]; 6.21
O=C1NC(=O)/C(=C/c2ccc(C(=O)NC[C@@H]3C[C@@H](OCc4ccccc4-c4ccccc4)CN3C(=O)c3ccccc3C(=O)c3ccc(Cl)cc3)cc2)S1 [Compound A-22]; 6.74
Cc1ccc(C(=O)c2ccccc2C(=O)N2C[C@H](OCc3ccccc3-c3ccccc3)C[C@H]2CNC(=O)c2ccc(/C=C3\SC(=O)NC3=O)cc2)cc1 [Compound A-21]; 6.64

In the following, a different compound is considered.
Input: # query: pIC50 | item O=C1NC(=O)/C(=C/c2ccc(C(=O)NC[C@@H]3C[C@@H](Oc4ccc(-c5ccccc5)cc4)CN3C(=O)c3ccccc3C(=O)c3ccc(F)cc3)cc2)S1 [Compound A-70] | system: production of prostaglandin E2 by human fibroblasts
Output: 6.72

---

# Target desc: cPLA2 (Homo sapiens)
Experimental readout: IC50 (nM)

O=C1NC(=O)/C(=C/c2ccc(C(=O)NC[C@@H]3C[C@H](SCc4ccccc4-c4ccccc4)CN3C(=O)c3ccccc3C(=O)c3ccc(F)cc3)cc2)S1; 100

[I] CC(C)N(Cc1ccccc1-c1ccccc1)[C@@H]1C[C@@H](CNC(=O)c2ccc(/C=C3\SC(=O)NC3=O)cc2)N(C(=O)c2ccccc2C(=O)c2ccc(F)cc2)C1
[II] O=C1NC(=S)S/C1=C\c1ccc(/C=C/C[C@@H]2C[C@@H](OCc3ccccc3-c3ccccc3)CN2C(=O)c2ccccc2C(=O)c2ccc(F)cc2)cc1
Input: Which numeric IC50 is bigger, that of I or that of II ? # reply format: chosen label
Output: II
(II: 77 nM, I: 39 nM)

---

pIC50: −log10 of the molar value.
cPLA2 (Homo sapiens, UniProt P47712) pIC50 data
Experimental readout: pIC50

O=C1NC(=O)/C(=C/c2ccc(C(=O)NC[C@@H]3C[C@H](SCc4ccccc4)CN3C(=O)c3ccccc3C(=O)c3ccccc3)cc2)S1 [Compound I-2]; 6.00

[a] CN(Cc1ccccc1-c1ccccc1)[C@@H]1C[C@@H](C(=O)Nc2ccc(/C=C3\SC(=O)NC3=O)cc2)N(C(=O)c2ccccc2C(=O)c2ccc(F)cc2)C1 [Compound N-2]
[b] O=C1NC(=O)/C(=C/c2ccc(C(=O)NC[C@@H]3C[C@@H](OCc4ccc(F)cc4F)CN3C(=O)c3ccccc3C(=O)c3ccccc3)cc2)S1 [Compound A-3]
[c] CN(Cc1ccc(/C=C2\SC(=O)NC2=O)cc1)C[C@@H]1C[C@@H](OCc2ccccc2-c2ccccc2)CN1C(=O)c1ccccc1C(=O)c1ccc(F)cc1 [Compound G-3]
[d] O=C1NC(=O)/C(=C/c2ccc(C(=O)NC[C@@H]3C[C@@H](OCc4ccccc4-c4cccc([N+](=O)[O-])c4)CN3C(=O)c3ccccc3C(=O)c3ccc(F)cc3)cc2)S1 [Compound A-45]
Input: Sort (4 molecules) by pIC50: min first. API: response body holds the labels in the requested order.
Output: c, b, a, d

---

# System: production of prostaglandin E2 by human fibroblasts
# Protocol text: Inhibition of Production of Prostaglandin E2 in Human Fibroblasts (IL-1 stimulation)
# Assay type: cell-based
# Condition set: Fibroblast; human fibroblasts under stimulation with IL-1
Quick reference for pIC50 among some molecules
Answer as the number alone; pIC50 is minus log10 of concentration in mol/L.

Input: Endpoint output: pIC50 of Cc1cccc(-c2ccccc2O[C@@H]2C[C@@H](CNC(=O)c3ccc(/C=C4\SC(=O)NC4=O)cc3)N(C(=O)c3ccccc3C(=O)c3ccc(F)cc3)C2)c1 [Compound A-108] . Value?
Output: 6.33

Input: For O=C1NC(=O)/C(=C/c2ccc(C(=O)NC[C@@H]3C[C@@H](OCc4ccccc4-c4cc5ccccc5o4)CN3C(=O)c3ccccc3C(=O)c3ccc(F)cc3)cc2)S1 [Compound A-40] then?
Output: 6.21

Input: For COc1cccc(-c2ccccc2OC(C)C)c1O[C@@H]1C[C@@H](CNC(=O)c2ccc(/C=C3\SC(=O)NC3=O)cc2)N(C(=O)c2ccccc2C(=O)c2ccc(F)cc2)C1 [Compound A-122] then?
Output: 5.85

---

# Target desc: cPLA2 (Homo sapiens, UniProt P47712)
# Sequence (P47712 1-749): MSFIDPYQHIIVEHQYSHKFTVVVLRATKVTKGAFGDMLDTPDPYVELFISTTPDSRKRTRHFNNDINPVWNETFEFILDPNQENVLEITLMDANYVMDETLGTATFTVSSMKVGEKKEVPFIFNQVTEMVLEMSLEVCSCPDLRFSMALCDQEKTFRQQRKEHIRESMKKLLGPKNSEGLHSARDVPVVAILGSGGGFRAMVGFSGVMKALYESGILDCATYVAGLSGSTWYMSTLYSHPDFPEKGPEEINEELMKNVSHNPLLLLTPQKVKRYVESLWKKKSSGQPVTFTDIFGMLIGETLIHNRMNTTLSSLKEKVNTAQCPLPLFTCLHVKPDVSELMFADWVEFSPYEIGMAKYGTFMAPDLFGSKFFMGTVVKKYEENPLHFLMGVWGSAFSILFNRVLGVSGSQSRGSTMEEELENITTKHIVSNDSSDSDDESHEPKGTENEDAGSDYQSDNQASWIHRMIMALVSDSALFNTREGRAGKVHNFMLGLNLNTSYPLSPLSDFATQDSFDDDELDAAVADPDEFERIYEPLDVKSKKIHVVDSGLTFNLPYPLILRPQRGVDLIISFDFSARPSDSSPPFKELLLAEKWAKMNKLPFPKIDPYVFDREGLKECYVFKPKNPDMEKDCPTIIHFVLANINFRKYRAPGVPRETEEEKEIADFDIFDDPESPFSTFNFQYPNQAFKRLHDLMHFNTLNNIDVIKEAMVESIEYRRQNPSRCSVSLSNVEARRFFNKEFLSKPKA
pIC50: −log10 of the molar value.
Experimental readout: pIC50

Field: example entries. Status: answers known.
CN(Cc1ccccc1-c1ccccc1)[C@@H]1C[C@@H](CNC(=O)c2ccc(/C=C3\SC(=S)NC3=O)cc2)N(C(=O)c2ccccc2C(=O)c2ccc(F)cc2)C1; 6.57
CC(C)Cc1cccc(-c2ccccc2C(C)C)c1O[C@@H]1C[C@@H](CNC(=O)c2ccc(/C=C3\SC(=O)NC3=O)cc2)N(C(=O)c2ccccc2C(=O)c2ccc(F)cc2)C1; 8.26
CN(C(=O)[C@@H]1C[C@@H](OCc2ccccc2-c2ccccc2)CN1C(=O)c1ccccc1C(=O)c1ccc(F)cc1F)c1ccc(/C=C2\SC(=S)NC2=O)cc1; 5.55

[I] O=C1NC(=O)/C(=C/c2ccc(/C=C/[C@@H]3C[C@@H](OCc4ccccc4-c4ccccc4)CN3C(=O)c3ccccc3C(=O)c3ccc(F)cc3)s2)S1
[II] O=C1NC(=O)/C(=C/c2ccc(C(=O)NC[C@@H]3C[C@@H](Oc4ccc5ccccc5c4-c4ccccc4)CN3C(=O)c3ccccc3C(=O)c3ccc(F)cc3)cc2)S1
Input: Lowest pIC50? choose I or II # reply format: chosen label
Output: I
